Experiment: Apparent solubility of the compound in phosphate buffer at pH 7.4 by shake flask method relative to ciprofloxacin
Format: physicochemical
parameter-measured: fold change (FC)
Give a plain numeric answer without units written out.

Here is how some compounds turned out for fold change (FC).
compound	parameter-measured	number
CCCCOC(=O)c1cn(C2CC2)c2cc(N3CCNCC3)c(F)cc2c1=O	fold change (FC)	4
CC(C)OC(=O)c1cn(C2CC2)c2cc(N3CCNCC3)c(F)cc2c1=O	fold change (FC)	0.5
COC(=O)c1cn(C2CC2)c2cc(N3CCNCC3)c(F)cc2c1=O	fold change (FC)	48
CCCOC(=O)c1cn(C2CC2)c2cc(N3CCNCC3)c(F)cc2c1=O	fold change (FC)	0.5

Bench note: what fold change (FC) did CCOC(=O)c1cn(C2CC2)c2cc(N3CCNCC3)c(F)cc2c1=O [CIPROFLOXACIN ETHYL ESTER] show?
2

###

Papp B→A values by entry
Experiment: Apparent permeability of the compound from basolateral to apical side in human Caco2 cells by LC-MS/MS analysis
Format: ADME, cell-based
Conditions: Caco-2
Just the number please, in ×10⁻⁶ cm/s, no unit attached.

Here is how some molecules turned out for Papp B→A.
molecule	measurement-unit	Papp B→A
COC(=O)c1cn(C2CC2)c2cc(N3CCNCC3)c(F)cc2c1=O	×10⁻⁶ cm/s	19.7
CCOC(=O)c1cn(C2CC2)c2cc(N3CCNCC3)c(F)cc2c1=O [CIPROFLOXACIN ETHYL ESTER]	×10⁻⁶ cm/s	24.3
CCCCOC(=O)c1cn(C2CC2)c2cc(N3CCNCC3)c(F)cc2c1=O	×10⁻⁶ cm/s	65.9

Kindly consider the entry below.
Bench note: what Papp B→A did `O=C(OCc1ccccc1)c1cn(C2CC2)c2cc(N3CCNCC3)c(F)cc2c1=O` show?
116

###

Assay: Efflux ratio of permeability from basolateral to apical side to apical to basolateral side in human Caco2 cells
Assay type: ADME, cell-based
Conditions: Caco-2
parameter-measured: efflux ratio
Give a plain numeric answer without units written out.

molecule	efflux ratio
CCCOC(=O)c1cn(C2CC2)c2cc(N3CCNCC3)c(F)cc2c1=O	146
CCCCCCOC(=O)c1cn(C2CC2)c2cc(N3CCNCC3)c(F)cc2c1=O	19
O=C(OCc1ccccc1)c1cn(C2CC2)c2cc(N3CCNCC3)c(F)cc2c1=O	18
CC(C)OC(=O)c1cn(C2CC2)c2cc(N3CCNCC3)c(F)cc2c1=O	7
CCCCOC(=O)c1cn(C2CC2)c2cc(N3CCNCC3)c(F)cc2c1=O	13

Bench note: what efflux ratio did `COC(=O)c1cn(C2CC2)c2cc(N3CCNCC3)c(F)cc2c1=O` show?
19

Bench note: what efflux ratio did CCOC(=O)c1cn(C2CC2)c2cc(N3CCNCC3)c(F)cc2c1=O [CIPROFLOXACIN ETHYL ESTER] show?
7

###

Test: Apparent solubility of the compound in phosphate buffer at pH 6.5 by shake flask method relative to ciprofloxacin
Assay type: physicochemical
fold change (FC) values by entry

Here is how some compounds turned out for fold change (FC).
compound	fold change (FC)
CC(C)OC(=O)c1cn(C2CC2)c2cc(N3CCNCC3)c(F)cc2c1=O	0.5
COC(=O)c1cn(C2CC2)c2cc(N3CCNCC3)c(F)cc2c1=O	66
CCCCOC(=O)c1cn(C2CC2)c2cc(N3CCNCC3)c(F)cc2c1=O	27
CCOC(=O)c1cn(C2CC2)c2cc(N3CCNCC3)c(F)cc2c1=O [CIPROFLOXACIN ETHYL ESTER]	2

Kindly consider the entry below.
Bench note: what fold change (FC) did `CCCOC(=O)c1cn(C2CC2)c2cc(N3CCNCC3)c(F)cc2c1=O` show?
0.5
